Measured TGI of individual entries
- System: HCC-2998 colon
- Experimental Details: NCI tumour cell line growth inhibition, 48 h
Where a SMILES comes first, the peptide text is derived from it. [ ]: non-standard residue; d: D form.

Solved entries (count: 2):
Cc1ccc2c(=O)c3ccccc3sc2c1 :: > 100 µM
N#Cc1nc2c(S(=O)(=O)c3ccc(Cl)cc3)c(N)n(CCCN3CCOCC3)c2nc1C#N :: 33.7 µM

Q: Please report the measured TGI for "Cc1cnc2[nH]c(-c3ccc4ccccc4c3)cc(=O)c2c1"
A: > 100 µM

Q: Please report the measured TGI for "[O-]c1ccccc1/C=N/C(/N=C/c1ccccc1[O-])c1ccccc1O.[O-]c1ccccc1/C=N/C(/N=C/c1ccccc1[O-])c1ccccc1O.[Zr+4]"
A: > 100 µM

Q: Please report the measured TGI for CCC[CH2][Sn]1([CH2]CCC)[O]C2C(CO)OC(n3ccc(N)nc3=O)C2[O]1 (centres undefined)
A: 3.2 µM

Q: Please report the measured TGI for CC(C)C[C@H](NC(=O)[C@H](CC(C)C)NC(=O)[C@@H](Cc1c[nH]c2ccccc12)NC(=O)[C@H](Cc1ccccc1)NC(=O)[C@@H](Cc1c[nH]c2ccccc12)NC(=O)[C@H](CCC(N)=O)NC(=O)[C@H](CCC(N)=O)NC(=O)[C@H]1CCCN1C(=O)[C@@H](N)CCCCN)C(N)=O (H-K[dP]QQ[dW]F[dW]LL-NH2)
A: > 100 µM

Q: Please report the measured TGI for CC1(C)N=C(C2CCCN2C(=O)OCc2ccccc2)OC1=O (centres undefined)
A: > 100 µM

Q: Please report the measured TGI for "O=C(OCCNC(=O)N1CC1)OCCNC(=O)N1CC1"
A: > 10 µM

Q: Please report the measured TGI for "O=C(NNC(=O)c1csc(NC(=S)NC2CCCCC2)n1)c1ccccc1"
A: 32.2 µM
